These measurements were taken from patent US20220315567A1.

Catalogue of pEC50 readings, one per entry.
system-name: human OPRM1 (μ, MOR) (Homo sapiens, UniProt P35372)
Construct: host or cells: CHO-K1
Sequence (P35372 whole entry): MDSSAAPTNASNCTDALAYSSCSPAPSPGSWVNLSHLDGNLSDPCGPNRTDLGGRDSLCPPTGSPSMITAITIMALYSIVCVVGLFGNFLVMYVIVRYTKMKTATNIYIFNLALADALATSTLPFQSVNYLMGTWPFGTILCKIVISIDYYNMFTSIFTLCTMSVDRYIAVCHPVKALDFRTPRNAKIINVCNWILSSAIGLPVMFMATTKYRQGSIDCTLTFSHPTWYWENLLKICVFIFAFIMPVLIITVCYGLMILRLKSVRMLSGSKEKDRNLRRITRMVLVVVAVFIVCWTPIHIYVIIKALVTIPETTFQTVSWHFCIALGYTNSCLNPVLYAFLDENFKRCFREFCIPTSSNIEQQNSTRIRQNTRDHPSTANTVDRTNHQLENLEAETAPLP
assay: cell-based
measurement-conditions: PathHunter human OPRM1 Arrestin CHO-K1 cell line; read-out: β-Arrestin EC50
pEC50: −log10 of the molar value. Structures can show the parent of a compound that is named as a salt.

Examples with their reported pEC50 follow.
(Q) Entry CN(C)C(CNC(=O)N(C)[C@@H]1CCCc2ccccc21)c1ccsc1 (stereo partly drawn) [Compound 45] has what pEC50?
(A) < 4.00

(Q) Try this compound next: CN(C)C(CNC(=O)N1Cc2ccccc2C1)c1ccccc1 (single isomer, unassigned) [Compound 57]
(A) < 4.00

(Q) Try this compound next: CN(C)C(CNC(=O)N1Cc2ccccc2C1)c1ccsc1 (stereo not drawn) [Compound 1a, hydrochloride]
(A) 6.73

(Q) Try this compound next: CN(C)C(CNC(=O)N1CC[C@@H](c2ccccc2)C1)c1ccsc1 (stereo partly drawn) [Compound 41]
(A) < 4.00

(Q) Try this compound next: CN(C)C1(CNC(=O)N[C@H]2CCc3ccccc3C2)CCCCC1 [Compound 56]
(A) < 4.00

New cases:
(Q) Entry CNC(CNC(=O)N1Cc2ccc(F)cc2C1)c1ccc(OC)cc1 (stereo not drawn) [Compound 83] has what pEC50?
(A) < 4.00

(Q) Try this compound next: CN(C)C(CNC(=O)N1CC[C@H](c2ccccc2)C1)c1ccsc1 (stereo partly drawn) [Compound 40]
(A) < 4.00

(Q) Try this compound next: COc1ccc(C(CNC(=O)N2CC[C@@H](c3ccccc3)C2)N(C)C)cc1 (stereo partly drawn) [Compound 42]
(A) < 4.00

(Q) Try this compound next: COc1ccc(C(CNC(=O)N2CCCc3cc(F)ccc32)N(C)C)cc1 (stereo not drawn) [Compound 68a]
(A) 4.84

(Q) Try this compound next: CN(C)[C@H](CCNC(=O)N1CC[C@H](c2ccccc2)C1)c1ccsc1 [Compound 75]
(A) 4.77

(Q) Try this compound next: CN(C)C(CNC(=O)N[C@H]1CCc2ccccc2C1)c1ccsc1 (stereo partly drawn) [Compound 52]
(A) < 4.00

(Q) Try this compound next: CN(C)C1(CNC(=O)N2Cc3ccc(F)cc3C2)CCCCC1 [Compound 46]
(A) 5.00

(Q) Try this compound next: CNC(CNC(=O)N1Cc2ccc(F)cc2C1)c1ccsc1 (stereo not drawn) [Compound 35]
(A) < 4.00

(Q) Try this compound next: CN(C)C1(CNC(=O)N2Cc3ccc(F)cc3C2)CCCC1 [Compound 63]
(A) < 4.00

(Q) Try this compound next: CN(C)C(CNC(=O)N1CCCc2cc(O)ccc21)c1ccsc1 (stereo not drawn) [Compound 53]
(A) 5.42

----------
system-name: human OPRM1 (μ, MOR) (Homo sapiens, UniProt P35372)
Construct: host or cells: CHO-K1
Type: cell-based
measurement-conditions: relative activity from EC50 and Emax of β-arrestin vs cAMP; lower RA = more G-protein biased
Structures can show the parent of a compound that is named as a salt.
metric: ΔRA of compound

Examples with their reported ΔRA of compound follow.
(Q) Entry COc1ccc(C(CNC(=O)N2CC[C@H](c3ccccc3)C2)N(C)C)cc1 (stereo partly drawn) [Compound 43] has what ΔRA of compound?
(A) <−2.96

(Q) Try this compound next: CN(C)C(CNC(=O)N[C@H]1CCc2ccccc2C1)c1ccsc1 (stereo partly drawn) [Compound 52]
(A) <−2.96

New cases:
(Q) Entry CN(C)[C@H](CCNC(=O)N[C@@H]1CCc2ccccc2C1)c1ccsc1 [Compound 71] has what ΔRA of compound?
(A) −1.85

(Q) Try this compound next: CN(C)C(CNC(=O)NC1CCc2ccccc2C1)c1ccsc1 (stereo not drawn) [Compound 10a, hydrochloride]
(A) <−2.96

(Q) Try this compound next: CN(C)C(CNC(=O)NC1CCc2ccccc2C1)c1ccccc1 (stereo not drawn) [Compound 19a, hydrochloride]
(A) <−2.96

(Q) Try this compound next: CN(C)C(CNC(=O)N[C@@H]1CCc2ccccc2C1)c1ccsc1 (stereo partly drawn) [Compound 48]
(A) <−2.96

(Q) Try this compound next: CN(C)C(CNC(=O)N[C@@H]1CCc2ccc(O)cc2C1)c1ccsc1 (stereo partly drawn) [Compound 50]
(A) <−2.96

(Q) Try this compound next: CN(C)C(CNC(=O)N1Cc2ccc(F)cc2C1)c1ccccc1 (stereo not drawn) [Compound 20a, hydrochloride]
(A) <−2.96

(Q) Try this compound next: COc1ccc(C(CNC(=O)N2CCCc3cc(F)ccc32)N(C)C)cc1 (stereo not drawn) [Compound 68a]
(A) −2.32

----------
Counter-ions that a name gives are not always drawn.
metric: melting point

Examples with their reported melting point follow.
(Q) Entry CN(C)[C@H](CCNC(=O)N[C@@H]1CCc2ccccc2C1)c1ccsc1 [Compound 72] has what melting point?
(A) 147 to 149 °C

(Q) Try this compound next: COc1ccc2c(c1)CN(C(=O)NCC(c1ccsc1)N(C)C)C2 (stereo not shown) (as salt: hydrochloride)
(A) 210 to 215 °C (dec.)

(Q) Try this compound next: CN(C)C(CNC(=O)N1Cc2ccc(O)cc2C1)c1ccc(O)cc1 (stereo not shown) (as salt: hydrobromid) [Compound 24, hydrobromide]
(A) 185 °C (dec.)

Proceed to the following item.
(Q) Entry CN(C)C(CNC(=O)N1Cc2cccc(F)c2C1)c1ccsc1 (stereo not shown) (as salt: hydrochloride) has what melting point?
(A) 150 to 155 °C (dec.)

----------
system-name: human OPRM1 (μ, MOR) (Homo sapiens)
Construct: host or cells: CHO-K1
assay: cell-based
measurement-conditions: PathHunter human OPRM1 Arrestin CHO-K1 cell line; read-out: cAMP EC50
Where a name gives a salt, the structure may show the parent alone.
Catalogue of EC50 readings, one per entry.
Express it in nM; write the number only.

Examples with their reported EC50 follow.
(Q) Form field - read-out: EC50; system: human OPRM1 (μ, MOR) (Homo sapiens); submitted item: CN(C)C(CNC(=O)N1CCCc2ccc(F)cc21)c1ccsc1 (stereo not drawn)
(A) 730

(Q) Try this molecule next: CNC(CNC(=O)N1Cc2ccc(F)cc2C1)c1ccc(OC)cc1 (stereo not drawn) [Compound 82]
(A) 457

Proceed to the following item.
(Q) Form field - read-out: EC50; system: human OPRM1 (μ, MOR) (Homo sapiens); submitted item: CN(C)C(CNC(=O)N1CCCc2ccccc21)c1ccsc1 (stereo not drawn) [Compound 9a, hydrochloride]
(A) 512

----------
system-name: human OPRM1 (μ, MOR) (Homo sapiens)
Construct: host or cells: CHO-K1
assay: cell-based
measurement-conditions: OPRM1, read-out: β-Arrestin Emax
Where a name gives a salt, the structure may show the parent alone.
Classify as follows. Reported Emax greater than or equal to 20%: Fulfilled. Reported Emax below: Not fulfilled.

(Q) API: above_or_equal(metric=Emax, cutoff=20%) for item CN(C)C(CNC(=O)N(C)C1CCCc2ccccc21)c1ccsc1 (centres unmarked) [Compound 13a, hydrochloride]
(A) Not fulfilled

New cases:
(Q) API: above_or_equal(metric=Emax, cutoff=20%) for item CN(C)C1(CNC(=O)N2Cc3ccc(F)cc3C2)CCCCC1 [Compound 46]
(A) Not fulfilled

(Q) Try this molecule next: CN(C)C(C)(C)CNC(=O)N1Cc2ccc(F)cc2C1 [Compound 62]
(A) Not fulfilled

(Q) Try this molecule next: CNC(CNC(=O)N1Cc2ccc(F)cc2C1)c1ccsc1 (centres unmarked) [Compound 35]
(A) Not fulfilled

(Q) Try this molecule next: COc1ccc(C(CNC(=O)N2CC[C@@H](c3ccccc3)C2)N(C)C)cc1 (some centres unmarked) [Compound 42]
(A) Not fulfilled

(Q) Try this molecule next: CN(C)C1(CNC(=O)N[C@@H]2CCc3ccccc3C2)CCCCC1 [Compound 55]
(A) Not fulfilled

(Q) Try this molecule next: CN(C)C(CNC(=O)N1Cc2ccc(O)cc2C1)c1ccsc1 (centres unmarked) [Compound 22, hydrobromide]
(A) Not fulfilled

----------
Catalogue of EC50 readings, one per entry.
system-name: human OPRM1 (μ, MOR) (Homo sapiens, UniProt P35372)
Construct: host or cells: CHO-K1
assay: cell-based
measurement-conditions: PathHunter human OPRM1 Arrestin CHO-K1 cell line; read-out: β-Arrestin EC50
Counter-ions that a name gives are not always drawn.

(Q) Entry CNC(CNC(=O)N1Cc2ccccc2C1)c1ccccc1 (single isomer, unassigned) [Compound 38-ent-B] has what EC50?
(A) > 100 µM

(Q) Try this compound next: CN(C)C(CNC(=O)N(C)C1CCCc2ccccc21)c1ccsc1 (stereo not shown) [Compound 13a, hydrochloride]
(A) 1.68 µM

(Q) Try this compound next: CN(C)C(CNC(=O)N1Cc2cc(F)c(F)cc2C1)c1ccsc1 (stereo not shown) [Compound 6a, hydrochloride]
(A) > 100 µM

(Q) Try this compound next: CN(C)C(CNC(=O)N1CCCc2cc(F)ccc21)c1ccsc1 (stereo not shown) [Compound 7a, hydrochloride]
(A) > 100 µM

(Q) Try this compound next: COc1ccc(C(CNC(=O)N2Cc3ccc(F)cc3C2)N(C)C)cc1 (stereo not shown) [Compound 16a, hydrochloride]
(A) 0.95 µM

(Q) Try this compound next: CN(C)C(CNC(=O)N1Cc2ccc(O)cc2C1)c1ccc(O)cc1 (stereo not shown) [Compound 24, hydrobromide]
(A) > 100 µM

(Q) Try this compound next: `CN(C)[C@@H](CCNC(=O)N1CC[C@@H](c2ccccc2)C1)c1ccsc1`
(A) > 100 µM

(Q) Try this compound next: CNC(CNC(=O)N1Cc2ccccc2C1)c1ccccc1 (single isomer, unassigned; (-)) [Compound 38-ent-A]
(A) > 100 µM

(Q) Try this compound next: CN(C)C(CNC(=O)NC1CCCc2ccccc21)c1ccsc1 (stereo not shown) [Compound 11a, hydrochloride]
(A) 0.021 µM

(Q) Try this compound next: `CN(C)[C@@H](CCNC(=O)N1Cc2ccc(F)cc2C1)c1ccsc1`
(A) > 100 µM
